- Tested on: HMLE_sh_eGFP viability, CellTiter-Glo luminescence, 72 h
- assay procedure: cytotoxicity in HMLE control line with eGFP shRNA, dose response, counter-screen for HMLE_sh_ECad selective toxicity project, cell-based, HMLE_sh_eGFP, luminescence (AID 463074);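 note: counterscreen control line to flag general toxicity for the HMLE_sh_ECad screen; potency for loss of viability as luminescence drops below DMSO wells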
Activity calls are given as the source filed them.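 Rule for the calls: active = AC50 no more than tenfold above the top dose tested, or full inhibition at every dose with a flat fit (cut at about 19 µM in these data); inconclusive = flat curve fit with inhibition between 30% and 70%, or poor fit; inactive = AC50 more than tenfold above the top dose tested.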
Give one outcome, nothing more. List: Yes (active), No (inactive)

The following compounds have reported results that may help.
>>> category("COc1ccc(CN2C(=O)c3cccnc3C2Nc2cc(Cl)ccc2OC)cc1 (stereo unspecified)")
"No"
>>> category("O=C(Nc1ccc(OCC(F)(F)C(F)F)c(C(F)(F)F)c1)c1ccc(Cl)cc1")
"Yes"
>>> category("CC(O)CC(C(=O)NNc1ccccc1)C(=O)NNc1ccccc1 (stereo unspecified)")
"Yes"
>>> category("COc1ccccc1/C=C/C=N/n1c(-c2n[nH]c3c2CCC3)n[nH]c1=S")
"Yes"
>>> category("CNC(CC(=O)c1ccc([N+](=O)[O-])cc1)C(Cl)(Cl)Cl (stereo unspecified)")
"Yes"
>>> category("Cc1ccc(N2C(=O)NC(=O)/C(=C\\C=C\\c3ccco3)C2=O)cc1")
"Yes"
>>> category("O=[N+]([O-])c1ccc(N2N=C(c3ccccc3)CC2c2ccccc2O)cc1 (stereo unspecified)")
"Yes"
>>> category("CCOC(=O)C1=C(c2ccccc2)N=c2s/c(=C\\c3cccc(O)c3)c(=O)n2C1c1cccs1 (stereo unspecified)")
"Yes"
>>> category("O=c1c(Cl)c(NCc2ccccc2)cnn1C12CC3CC(CC(C3)C1)C2")
"Yes"
>>> category("Clc1ccc(CSc2nnnn2-c2ccc3c(c2)OCO3)c(Cl)c1")
"Yes"

Task: Short answer needed: outcome of this test for `CCc1ccc2nc(SCC(=O)Nc3ccccc3N3CCOCC3)c(C#N)cc2c1` ?
Result: Yes

Task: Short answer needed: outcome of this test for `CCOC(=O)c1sc(NC(=O)c2cc(-c3ccccc3C)nc3ccccc23)c(C#N)c1C` ?
Result: Yes

====

AC50 values by entry
- System: HMLE_sh_eGFP viability, CellTiter-Glo luminescence, 72 h
- assay procedure: cytotoxicity in HMLE control line with eGFP shRNA, dose response, counter-screen for HMLE_sh_ECad selective toxicity project, cell-based, HMLE_sh_eGFP, luminescence (AID 463074);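 note: counterscreen control line to flag general toxicity for the HMLE_sh_ECad screen; potency for loss of viability as luminescence drops below DMSO wells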

Below, 5 compounds whose answers are already recorded.
>>> result("CCOC(=O)N1CCN(S(=O)(=O)c2ccc(C(=O)NNc3nc4cc(C)cc(C)c4s3)cc2)CC1")
"3.7 µM"
>>> result("O=C(CNC(=O)C1COc2ccccc2O1)N/N=C/c1ccc(O)cc1O (configuration not stated)")
"5.21 µM"
>>> result("COC(=O)Nc1nc2ccc(-c3n[nH]c(=O)c4ccccc34)cc2[nH]1")
"1.88 µM"
>>> result("O=C(c1ccccc1)c1c[nH]c(C(=O)NNc2ccccc2)c1")
"1.53 µM"
>>> result("CN1CCN(C2=Cc3cc(Cl)ccc3Sc3cc(F)ccc32)CC1")
"7.29 µM"

Kindly consider the entry below.
In plain terms, `O=C(CSc1nc2nc(-c3cccs3)cc(C(F)(F)F)c2c(=O)[nH]1)Nc1ccc(F)c(F)c1` has a documented AC50 of 2.56 µM

====

- Tested on: HMLE_sh_eGFP viability, CellTiter-Glo luminescence, 72 h
- assay procedure: cytotoxicity in HMLE control line with eGFP shRNA, dose response, counter-screen for HMLE_sh_ECad selective toxicity project, cell-based, HMLE_sh_eGFP, luminescence (AID 463074);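 note: counterscreen control line to flag general toxicity for the HMLE_sh_ECad screen; potency for loss of viability as luminescence drops below DMSO wells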
readout name: AC50

>>> result("COc1nc(N2CCCCCC2)nc(N2CCCCCC2)n1")
"7.43 µM"
>>> result("CC(C)(C)c1ccc(C(=O)NCCCN2CCN(CCCNC(=O)c3ccc(C(C)(C)C)cc3)CC2)cc1")
"3.25 µM"
>>> result("O=C(/C(N=Nc1cccc(C(F)(F)F)c1)=C(/O)c1cccs1)C(F)(F)F")
"2.17 µM"

In plain terms, `O=C(Nc1cccc(Cl)c1)c1nc[nH]c1C(=O)NCCCNC(=O)c1[nH]cnc1C(=O)Nc1cccc(Cl)c1` has a documented AC50 of 5.33 µM

In plain terms, `Cc1ccc(SC[C@H](C)CN2CC[C@H](C(C)(C)C)CCC2=O)cc1` has a documented AC50 of 6.63 µM

In plain terms, `CC/C(=N\Nc1ccccc1)c1c(O)n(-c2ccc(OC)cc2)c(=O)[nH]c1=O` has a documented AC50 of 2.13 µM

In plain terms, CCC1(C)Cc2c(sc3nc(SC)n(Cc4ccccc4)c(=O)c23)CO1 (stereo unspecified) has a documented AC50 of 2.77 µM

In plain terms, `O=C(Nc1ccc(N2CCN(C(=O)c3cccs3)CC2)cc1)c1ccc([N+](=O)[O-])o1` has a documented AC50 of 1.87 µM

In plain terms, `CC(=O)Oc1ccc(C#C/C=C2\c3ccccc3C(=O)N2c2ccccc2)cc1` has a documented AC50 of 4.92 µM

In plain terms, `O=C(NCc1ccc2c(c1)OCO2)c1nc(S(=O)(=O)Cc2ccccc2F)ncc1Cl` has a documented AC50 of 6.81 µM

In plain terms, `Cc1ccnc2c1ccc1c(C)ccnc12` has a documented AC50 of 0.937 µM
